Reported pIC50 is given for each of the following compounds.
# assayedSystem: integrin α 4 β 7 (Homo sapiens, UniProt P13612+P26010)
# Construct: lymphoma cell strain RPMI-8866 of human B cells, known to express integrin α 4 β 7; endogenous in cells
# Sequence (P13612 34-1032): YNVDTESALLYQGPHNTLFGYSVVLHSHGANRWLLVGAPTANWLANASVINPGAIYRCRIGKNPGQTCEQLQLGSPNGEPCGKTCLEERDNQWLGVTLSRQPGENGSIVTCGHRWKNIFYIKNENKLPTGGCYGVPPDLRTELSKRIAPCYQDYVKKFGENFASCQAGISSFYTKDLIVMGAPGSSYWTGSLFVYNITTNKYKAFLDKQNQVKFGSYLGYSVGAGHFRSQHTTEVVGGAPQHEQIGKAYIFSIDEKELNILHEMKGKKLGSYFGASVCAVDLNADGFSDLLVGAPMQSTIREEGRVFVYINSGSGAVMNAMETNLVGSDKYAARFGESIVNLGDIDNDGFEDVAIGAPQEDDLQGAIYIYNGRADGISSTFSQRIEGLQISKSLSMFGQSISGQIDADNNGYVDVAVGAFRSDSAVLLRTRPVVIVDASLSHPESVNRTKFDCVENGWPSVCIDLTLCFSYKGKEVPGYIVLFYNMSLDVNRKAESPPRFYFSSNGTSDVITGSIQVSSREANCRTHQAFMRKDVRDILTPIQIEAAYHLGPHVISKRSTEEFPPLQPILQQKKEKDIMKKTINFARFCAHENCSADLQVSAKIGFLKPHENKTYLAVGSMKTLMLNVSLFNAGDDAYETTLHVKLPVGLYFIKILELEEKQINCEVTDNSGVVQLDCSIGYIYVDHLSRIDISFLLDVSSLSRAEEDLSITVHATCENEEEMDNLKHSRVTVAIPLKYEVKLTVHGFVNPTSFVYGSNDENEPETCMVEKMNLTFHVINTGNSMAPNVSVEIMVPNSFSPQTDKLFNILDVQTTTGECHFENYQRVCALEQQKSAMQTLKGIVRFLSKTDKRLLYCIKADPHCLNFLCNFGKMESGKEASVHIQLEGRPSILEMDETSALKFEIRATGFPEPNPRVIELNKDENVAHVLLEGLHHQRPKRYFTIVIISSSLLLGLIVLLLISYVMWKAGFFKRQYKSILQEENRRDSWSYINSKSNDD
# Sequence (P26010 20-798): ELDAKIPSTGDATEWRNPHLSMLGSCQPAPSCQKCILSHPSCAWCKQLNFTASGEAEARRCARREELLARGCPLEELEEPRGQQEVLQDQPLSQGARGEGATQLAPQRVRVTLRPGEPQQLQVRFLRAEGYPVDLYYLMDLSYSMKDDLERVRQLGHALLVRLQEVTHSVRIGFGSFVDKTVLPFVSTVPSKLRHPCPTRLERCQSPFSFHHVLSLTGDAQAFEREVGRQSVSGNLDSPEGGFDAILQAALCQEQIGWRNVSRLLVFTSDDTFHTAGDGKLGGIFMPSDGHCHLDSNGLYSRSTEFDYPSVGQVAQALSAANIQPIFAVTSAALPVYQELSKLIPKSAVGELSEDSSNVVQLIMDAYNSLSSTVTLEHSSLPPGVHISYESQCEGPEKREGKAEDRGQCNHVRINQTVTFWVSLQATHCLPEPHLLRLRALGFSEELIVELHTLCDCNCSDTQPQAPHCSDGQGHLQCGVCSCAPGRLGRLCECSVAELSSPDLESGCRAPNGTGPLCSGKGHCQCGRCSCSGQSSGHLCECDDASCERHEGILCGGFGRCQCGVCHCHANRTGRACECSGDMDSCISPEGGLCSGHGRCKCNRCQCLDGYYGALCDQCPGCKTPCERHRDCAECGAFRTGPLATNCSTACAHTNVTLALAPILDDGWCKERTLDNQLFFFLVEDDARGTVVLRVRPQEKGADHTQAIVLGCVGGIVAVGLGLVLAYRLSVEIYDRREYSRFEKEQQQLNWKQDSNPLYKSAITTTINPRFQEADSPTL
# runDescription: VCAM antagonistic activity (VCAM-1/α 4 β 7 binding assay): binding of RPMI-8866 cells to VCAM-1
# conditionDescription: fluorescent RPMI-8866 cells binding to recombinant human VCAM-1, 4 mM MnCl2, room temperature 30 minutes
pIC50: −log10 of the molar value.

- compound: "Cn1c(=O)n(-c2ccc(/C=C(\\CC(=O)c3c(Cl)cccc3Cl)C(=O)O)cc2)c(=O)c2ccccc21"
  pIC50: "≥ 6.10"
- compound: "Cn1c(=O)n(-c2ccc(CC(CC(O)c3c(Cl)cccc3Cl)C(=O)O)cc2)c(=O)c2ccccc21 (stereo not drawn)"
  pIC50: "4.00 to 4.70"
- compound: "Cn1c(=O)n(-c2ccc(CC(CC(=O)c3ccccc3)C(=O)O)cc2)c(=O)c2ccccc21 (stereo not drawn)"
  pIC50: "4.00 to 4.70"
- compound: "Cn1c(=O)n(-c2ccc(CC(CC(=O)c3c(F)cccc3F)C(=O)O)cc2)c(=O)c2ccccc21 (stereo not drawn)"
  pIC50: "5.40 to 6.10"
- compound: "COC(=O)c1ccccc1NC(=O)Nc1ccc(CC(CC(=O)c2c(Cl)cccc2Cl)C(=O)O)cc1 (stereo not drawn)"
  pIC50: "4.00 to 4.70"

**Q:** Which pIC50 is reported for this compound? Cn1c(=O)n(-c2ccc(CC(CC(=O)c3c(Cl)cccc3Cl)C(=O)O)cc2)c(=O)c2ccccc21 (stereo not drawn)
**A:** ≥ 6.10
